Here, each record is paired with measured melting point data.

smiles-data | melting point
Clc1cc(I)ccc1CBr | 44 to 45.5 °C
O=C(NCCCCCn1ccnc1)c1ccc(Cl)nc1 | 110 to 112 °C

Problem: Please report the measured melting point for C=Cn1ccnc1C(O)(c1ccc(Cl)cc1)c1ccc(Cl)cc1
Solution: 174 °C

* * *

test-readout: melting point

compound | test-readout | assay-value
NC(Cc1cc(Cl)ccc1CCP(=O)(O)O)C(=O)O (configuration not stated) | melting point | > 160 °C
COc1ccc(O)cn1 | melting point | 80 to 82 °C
CCCCC[C@@H](O)C=C[C@@H]1[C@@H](CC(=O)O)[C@@H](O)C[C@H]1O | melting point | 105 to 107 °C
CSc1ccc2ccc(C(=O)O)cc2c1 | melting point | 217 °C
COc1ccc(S(=O)(=O)N2CCc3cccc(-c4ccc(CN(C)C)cc4)c32)cc1 | melting point | 165 to 166 °C

Problem: Output measured melting point for this item: COc1cc2nc(S(=O)(=O)Nc3c(Cl)cccc3Cl)nn2c(OC)n1
Solution: 211 to 212 °C

Problem: // fetch melting point given entry CCOC(=O)c1nc(-c2ccc(Cl)cc2F)nc(N)c1Cl
Solution: 131 to 132 °C

Problem: Dear colleague, please send me the reported melting point for O=C1OC(c2ccccc2)=CC1=Cc1cccs1 when you can.
Solution: 141 °C

Problem: Provide one value: measured melting point of O=C(CCc1ccncc1)c1c(O)c2cccnc2n(-c2cccc([N+](=O)[O-])c2)c1=O
Solution: 174 to 177 °C

Problem: Identify measured melting point associated with CC(C)(CO)NC(=O)NCCNCC(O)COc1ccc(O)cc1 (configuration not stated)
Solution: 113 to 130 °C

Problem: Query melting point for Clc1ccc2c(c1)Cc1cc(Cl)ccc1OCCOCCOCCOCCO2
Solution: 144 °C

Problem: Supply melting point value. Item: CN1CC(CCCl)Oc2ncc(Cl)cc2C1=O (configuration not stated)
Solution: 78 to 79 °C
